Data origin: paper PMC8629650

target: mouse ELP2 protein (Mus musculus, UniProt Q91WG4); experiment: Surface plasmon resonance (SPR) affinity analysis, compounds fixed on the chip; type: binding; details: SPR, Elp2 protein 200 nM to 3200 nM passed over the immobilized compound; read-out: Avg Koff
Sequence (Q91WG4 whole entry): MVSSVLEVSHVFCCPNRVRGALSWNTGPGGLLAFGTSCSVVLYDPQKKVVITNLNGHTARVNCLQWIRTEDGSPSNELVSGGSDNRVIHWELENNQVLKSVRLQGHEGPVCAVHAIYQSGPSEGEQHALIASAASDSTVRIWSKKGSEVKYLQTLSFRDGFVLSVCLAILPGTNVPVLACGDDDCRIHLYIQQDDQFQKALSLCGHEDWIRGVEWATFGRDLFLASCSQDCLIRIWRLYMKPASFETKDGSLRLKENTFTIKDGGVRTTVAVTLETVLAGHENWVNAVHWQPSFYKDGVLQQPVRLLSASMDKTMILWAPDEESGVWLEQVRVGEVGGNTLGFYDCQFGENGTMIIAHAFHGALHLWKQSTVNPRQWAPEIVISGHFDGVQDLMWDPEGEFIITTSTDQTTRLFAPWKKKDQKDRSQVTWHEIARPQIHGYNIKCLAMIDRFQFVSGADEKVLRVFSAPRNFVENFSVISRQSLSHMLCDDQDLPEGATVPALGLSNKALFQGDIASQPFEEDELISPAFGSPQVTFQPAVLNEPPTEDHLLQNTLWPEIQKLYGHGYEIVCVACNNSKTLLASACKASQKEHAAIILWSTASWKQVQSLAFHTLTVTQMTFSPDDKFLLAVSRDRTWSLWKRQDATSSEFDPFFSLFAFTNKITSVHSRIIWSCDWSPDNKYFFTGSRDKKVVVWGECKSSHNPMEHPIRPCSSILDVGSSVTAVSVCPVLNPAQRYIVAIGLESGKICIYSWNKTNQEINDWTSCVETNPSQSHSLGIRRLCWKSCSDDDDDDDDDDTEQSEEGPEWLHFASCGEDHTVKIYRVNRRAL
assay-metric: koff (s⁻¹)

Worked cases, answers included:
molecule: Cc1cc(=O)c2c(o1)[C@H](c1cccc(O)c1)CC(=O)O2
koff / s⁻¹: 0.45
//
molecule: CC1CCCC2(C)CC3OC(=O)C(CN4CCN(C(=O)c5ccco5)CC4)C3C=C12 (stereo not shown)
koff / s⁻¹: 0.00105
//
molecule: COc1ccc([C@H](CC(=O)N[C@@H](Cc2ccccc2)C(N)=O)c2oc(C)cc(=O)c2O)cc1
koff / s⁻¹: 0.234
//
molecule: O=C1c2ccccc2-c2c1c1ccccc1c(=O)n2NCCO
koff / s⁻¹: 0.000241
//
molecule: Cc1cc(O)cc(=O)n1C[C@H](O)c1ccc(O)cc1
koff / s⁻¹: 0.075

a: COc1ccc2c(c1)C(CCn1c(C)cc(O)cc1=O)C(=O)N2 (stereo not shown)
b: Cc1cc(O)cc(=O)n1C[C@@H](O)c1cccc(O)c1
Query block: I need your help: which of the pair a , b has higher koff? Pick one and reply with its label.
Result block: a
